Recorded values, source paper PMC5540273.

system: PCTK1; construct: gene CDK16;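 further: kd values determined as follow-up on hits from a single-replicate KINOMEscan panel screen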
Kd overview

What value of measured Kd is listed for O=C(Nc1n[nH]c2nc(-c3ccco3)c(Br)cc12)C1CCN(Cc2ccccc2)C1.O=C(O)[C@H](O)[C@@H](O)C(=O)O (centres unmarked) ?
150 nM

What value of measured Kd is listed for COc1ccc(Nc2nccc(N3CCC(NC(=O)C(C)c4ccc(Cl)cc4)CC3)n2)cc1 (centres unmarked) ?
> 10000 nM

---

%Inh overview
tested on: MAP4K2; settings: concentration: 1 μM, replicates: in singlicate; n = 1
Give the value, in units of %, as a plain number.

Solved cases below.
Compound | Observed measurement
Cc1c(Cn2c3ccccc3n3c(=O)cc(N4CCOCC4)nc23)cccc1C(F)(F)F | 2
Nc1cccc(-c2ccc3c(N)n[nH]c3c2)n1 | 59
COc1ccc(Nc2nccc(NCCNC(=O)Nc3cc(C)ccc3C)n2)cc1 | 0
O=c1cc(N2CCOCC2)nc2n(Cc3ccccc3F)ccn12 | 0
Cn1cncc1C(=O)NC1CCN(c2ccnc(Nc3ccc(F)cc3)n2)C1 (stereo not drawn) | 0

What value of measured %Inh is listed for "O=C1NC(=O)C(c2ccc(Cl)cc2)=C1Nc1cccc(Cl)c1" ?
6

What value of measured %Inh is listed for "COc1ccc(Nc2nccc(-c3ccc(NC(=O)c4cc5cc(F)ccc5[nH]4)cc3)n2)cc1" ?
0

What value of measured %Inh is listed for "CS(=O)(=O)Cc1ccc(Nc2nccc(-c3c(-c4cccc(NC(=O)C5CCCCC5)c4)nn4ncccc34)n2)cc1" ?
36

What value of measured %Inh is listed for "CCCCc1nn2ncccc2c1-c1ccnc(NC2CC2)n1" ?
0

What value of measured %Inh is listed for COC(=O)c1cccc(NC(=O)NC2CCN(c3ccnc(Nc4ccc(F)cc4)n3)C2)c1 (stereo not drawn) ?
0

What value of measured %Inh is listed for "CNC(=O)c1ccc(C)c(-n2c(C)cc(OCc3ccc(F)cc3F)c(Br)c2=O)c1" ?
0

---

%Inh overview
test system: ERBB4; settings: concentration: 1 μM, replicates: in singlicate; n = 1
Give the value, in units of %, as a plain number.

Compound | Result units | %Inh
COc1cccc(NC(=O)Nc2ccc(C)c(-c3ccc(C(=O)Nc4ccncc4)cc3)c2)c1 | % | 25

// switching to the query compound
What value of measured %Inh is listed for "Cc1ccc(NC(=O)Nc2ccc(Cl)c(C(F)(F)F)c2)cc1-c1ccc(C(=O)Nc2ccncc2)cc1" ?
6

---

%Inh overview
test system: AURKA; details: concentration: 1 μM, replicates: in singlicate; n = 1
Give the value, in units of %, as a plain number.

What value of measured %Inh is listed for "Cc1c(Cn2c(C)c(C)n3c(=O)cc(N4CCOCC4)nc23)cccc1C(F)(F)F" ?
0

What value of measured %Inh is listed for CC(=O)c1cccc(NC(=O)NC2CCN(c3ccnc(Nc4ccc(F)cc4)n3)C2)c1 (centres unmarked) ?
12

What value of measured %Inh is listed for "Fc1ccc(-c2nc3n(c2-c2ccncc2)CCS3)cc1" ?
0

What value of measured %Inh is listed for "Cc1ccc(NC(=O)c2ccc(Cl)cc2)cc1-c1ccc(C(=O)Nc2ccncc2)cc1" ?
0

What value of measured %Inh is listed for "CNc1nc(-c2ccc3c(N)n[nH]c3c2)cc(N2C[C@@H](C(=O)Nc3ccccc3)CC[C@H]2C)n1" ?
12

What value of measured %Inh is listed for "Cc1ccc(-c2nc(Nc3ccncc3)c3ccccc3n2)s1" ?
0

---

tested on: TRKC; construct: gene NTRK3; settings: concentration: 1 μM, replicates: in singlicate; n = 1
%Inh overview
Give the value, in units of %, as a plain number.

Compound | Assay target | Quantity | Result units | Observed measurement
Cc1c(Cn2c3ccccc3n3c(=O)cc(N4CCOCC4)nc23)cccc1C(F)(F)F | TRKC | %Inh | % | 0

What value of measured %Inh is listed for "NS(=O)(=O)c1cccc(N/C=C2\C(=O)Nc3ccc(S(=O)(=O)Cc4c(Cl)cccc4Cl)cc32)c1" ?
29

What value of measured %Inh is listed for "CNc1nc(-c2ccc3c(N)n[nH]c3c2)cc(N2C[C@@H](C(=O)NC3CCCCC3)OC[C@H]2C)n1" ?
0

What value of measured %Inh is listed for "Cc1ccc(NC(=O)Nc2ccc(Cl)cc2)cc1-c1ccc(C(=O)Nc2ccncc2)cc1" ?
9

What value of measured %Inh is listed for "O=C(Nc1n[nH]c2cc(-c3ccsc3)ccc12)C1CC1" ?
38

What value of measured %Inh is listed for "COc1nccc(-c2c(-c3ccc(F)cc3)ncn2CCCN2CCOCC2)n1" ?
13

What value of measured %Inh is listed for "O=C(Nc1n[nH]c2nc(-c3cccs3)c(Br)cc12)C1CCCC1" ?
9

What value of measured %Inh is listed for "Fc1ccc(-c2nc3n(c2-c2ccncc2)CCS3)cc1" ?
17

What value of measured %Inh is listed for "COc1ccc(CSc2nnc(-c3ccc4ncsc4c3)o2)cc1C(F)(F)F" ?
13

---

tested on: AKT3; settings: concentration: 1 μM, replicates: in singlicate; n = 1
%Inh overview
Give the value, in units of %, as a plain number.

Molecule | Assay target | %Inh / %
COc1ccc(Nc2nccc(N3CCC(NC(=O)C(C)c4ccc(Cl)cc4)CC3)n2)cc1 (stereo not drawn) | AKT3 | 3
O=c1cc(N2CCOCC2)nc2n(Cc3cccc(Cl)c3Cl)c3ccccc3n12 | AKT3 | 0
O=C1NC(=O)C(c2ccc(Cl)cc2)=C1Nc1cccc(Cl)c1 | AKT3 | 0
Cc1ccc(NC(=O)Nc2ccccc2F)cc1-c1ccc(C(=O)Nc2ccncc2)cc1 | AKT3 | 0
Cc1c(Cn2c(C)c(C)n3c(=O)cc(N4CCOCC4)nc23)cccc1C(F)(F)F | AKT3 | 0

// switching to the query molecule
What value of measured %Inh is listed for "COc1ccc(-c2coc3ccc(-c4nnc(C)o4)cc23)cc1" ?
2

---

%Inh overview
system: CAMKK1; details: concentration: 1 μM, replicates: in singlicate; n = 1
Give the value, in units of %, as a plain number.

Solved cases below.
Molecule | Observed measurement
Fc1ccc(-c2nc[nH]c2-c2ccncc2)cc1 | 0
Cn1cncc1C(=O)NC1CCN(c2ccnc(Nc3ccc(F)cc3)n2)C1 (centres unmarked) | 30
NS(=O)(=O)c1cccc(N/C=C2\C(=O)Nc3ccc(S(=O)(=O)Cc4c(Cl)cccc4Cl)cc32)c1 | 72
COC(=O)c1cccc(NC(=O)NC2CCN(c3ccnc(Nc4ccc(F)cc4)n3)C2)c1 (centres unmarked) | 0
CNc1nc(-c2ccc3c(N)n[nH]c3c2)cc(N2C[C@@H](C(=O)Nc3ccccc3)CC[C@H]2C)n1 | 21
Nc1ncnc2occ(-c3ccc4c(c3)CCN4C(=O)Cc3cc(F)ccc3F)c12 | 0
COc1ccc(CSc2nnc(-c3ccc4nccn4c3)o2)cc1C(F)(F)F | 0

// switching to the query molecule
What value of measured %Inh is listed for "Cc1ccc(NC(=O)Nc2ccc(Cl)c(C(F)(F)F)c2)cc1-c1ccc(C(=O)Nc2ccncc2)cc1" ?
0

---

tested on: PIK4CB; construct: gene PI4KB; details: concentration: 1 μM, replicates: in singlicate; n = 1
%Inh overview
Give the value, in units of %, as a plain number.

Molecule | Assay target | Quantity | Observed measurement
Cl.Cl.Cl.N#Cc1ccc(CCNc2nccc(-c3cccc(CN4CCNCC4)c3)n2)cc1 | PIK4CB | %Inh | 26
Cc1c(Cn2c3ccccc3n3c(=O)cc(N4CCOCC4)nc23)cccc1C(F)(F)F | PIK4CB | %Inh | 90.3
O=c1cc(N2CCOCC2)nc2n(Cc3ccccc3F)ccn12 | PIK4CB | %Inh | 0
CC(=O)c1cccc(NC(=O)NC2CCN(c3ccnc(Nc4ccc(F)cc4)n3)C2)c1 (stereo not drawn) | PIK4CB | %Inh | 31
Cc1ccc(NC(=O)Nc2ccccc2)cc1-c1ccc(C(=O)Nc2ccncc2)cc1 | PIK4CB | %Inh | 0
Cn1cnc2c(N)ncnc21 | PIK4CB | %Inh | 10
CS(=O)(=O)Cc1ccc(Nc2nccc(-c3c(-c4cccc(NC(=O)C5CCCCC5)c4)nn4ncccc34)n2)cc1 | PIK4CB | %Inh | 45
CC(=O)c1c(C)c2cnc(Nc3ccn(C)n3)nc2n(C2CCCC2)c1=O | PIK4CB | %Inh | 0

// switching to the query molecule
What value of measured %Inh is listed for "CC(C)c1cc(-c2ccc3c(N)n[nH]c3c2)nc(N)n1" ?
0

---

%Inh overview
system: WNK2; conditions: concentration: 1 μM, replicates: in singlicate; n = 1
Give the value, in units of %, as a plain number.

Compound | Quantity | Observed measurement
CC(=O)c1cccc(NC(=O)NC2CCN(c3ccnc(Nc4ccc(F)cc4)n3)C2)c1 (stereo not drawn) | %Inh | 0
CCn1c(-c2ccccc2)nc2cnccc21 | %Inh | 0

What value of measured %Inh is listed for "COc1nccc(-c2c(-c3ccc(F)cc3)ncn2CCCN2CCOCC2)n1" ?
14

What value of measured %Inh is listed for "CNCc1ccc2nc(NC(=O)c3ccc(C(C)(C)C)cc3)cn2c1" ?
0

What value of measured %Inh is listed for "COc1ccc(-c2coc3ccc(-c4nnc(C)o4)cc23)cc1" ?
32

What value of measured %Inh is listed for "Cc1ccccc1Cn1ccn2c(=O)cc(N3CCOCC3)nc12" ?
0

What value of measured %Inh is listed for "COc1ccc(CSc2nnc(-c3ccc4ncsc4c3)o2)cc1C(F)(F)F" ?
8

What value of measured %Inh is listed for "CNc1cc(-c2ccc3c(N)n[nH]c3c2)nc(N)n1" ?
0

What value of measured %Inh is listed for COC(=O)C(NC(=O)NC1CCN(c2ccnc(Nc3ccc(F)cc3)n2)C1)c1ccccc1 (stereo not drawn) ?
28
